# Test Method Notes: Pharmacokinetic study of long acting preparation in Beagle dogs
# Format: in vivo, Beagle dog
# Assay Context: dog, plasma, im, 30 mg/kg, Mean of 5 dogs; 30 mg/kg i.m.; read-out: β (converted)
Reported Property: k el (s⁻¹)
Write the value in s⁻¹ as a bare number.

Qu. Please report k el for the following compound: O=C(CCCCCCCCC(=O)Oc1ccc2c3c1O[C@H]1[C@@H](O)CC[C@@]4(O)[C@@H](C2)N(CC2CCC2)CC[C@]314)Oc1ccc2c3c1O[C@H]1[C@@H](O)CC[C@@]4(O)[C@@H](C2)N(CC2CCC2)CC[C@]314 [sebacoyl dinalbuphine ester]
Ans. 8.33e-06

---

# Test Method Notes: Pharmacokinetic study of long acting preparation in Beagle dogs
# Type: in vivo, Beagle dog
# Assay Context: dog, plasma, im, 81 mg/kg, Table 7, Dog 2, Dose 81.0 mg/kg; read-out: CLt (converted)
Reported Property: CL/F (mL/h/kg)
Write the value in mL/h/kg as a bare number.

Qu. Please report CL/F for the following compound: O=C(CCCCCCCCC(=O)Oc1ccc2c3c1O[C@H]1[C@@H](O)CC[C@@]4(O)[C@@H](C2)N(CC2CCC2)CC[C@]314)Oc1ccc2c3c1O[C@H]1[C@@H](O)CC[C@@]4(O)[C@@H](C2)N(CC2CCC2)CC[C@]314
Ans. 1.64

---

# Test Method Notes: Pharmacokinetic study of long acting preparation in Beagle dogs
# Format: in vivo, Beagle dog
# Assay Context: dog, plasma, im, 81 mg/kg, Table 7, Dog 2, Dose 81.0 mg/kg; read-out: k10 (converted)
# Protocol: Six Beagle dogs were used. […] Relationship between time and concentration was analyzed by PCNONLIN computer program. Two compartment model and pharmacokinetic parameters were calculated to depicted absorption, distribution, metabolism, and excretion of drugs in dogs.
Reported Property: k el (s⁻¹)
Write the value in s⁻¹ as a bare number.

Qu. Please report k el for the following molecule: O=C(CCCCCCCCC(=O)Oc1ccc2c3c1O[C@H]1[C@@H](O)CC[C@@]4(O)[C@@H](C2)N(CC2CCC2)CC[C@]314)Oc1ccc2c3c1O[C@H]1[C@@H](O)CC[C@@]4(O)[C@@H](C2)N(CC2CCC2)CC[C@]314
Ans. 0.000456

---

# Test Method Notes: Pharmacokinetic study of long acting preparation in Beagle dogs
# Assay type: in vivo, Beagle dog
# Assay Context: dog, plasma, im, 24.3 mg/kg, Table 7, Dog 2, Dose 24.3 mg/kg; read-out: β (converted)
Reported Property: k el

Qu. Please report k el for the following compound: O=C(CCCCCCCCC(=O)Oc1ccc2c3c1O[C@H]1[C@@H](O)CC[C@@]4(O)[C@@H](C2)N(CC2CCC2)CC[C@]314)Oc1ccc2c3c1O[C@H]1[C@@H](O)CC[C@@]4(O)[C@@H](C2)N(CC2CCC2)CC[C@]314
Ans. 6.39e-06 s⁻¹

---

# Test Method Notes: Pharmacokinetic study of long acting preparation in Beagle dogs
# Type: in vivo, Beagle dog
# Assay Context: dog, plasma, im, 30 mg/kg, individual Dog 1 to Dog 5, lines in this order; 30 mg/kg i.m.
Reported Property: AUC (ng·h/mL)
Write the value in ng·h/mL as a bare number.

Qu. Please report AUC for the following compound: O=C(CCCCCCCCC(=O)Oc1ccc2c3c1O[C@H]1[C@@H](O)CC[C@@]4(O)[C@@H](C2)N(CC2CCC2)CC[C@]314)Oc1ccc2c3c1O[C@H]1[C@@H](O)CC[C@@]4(O)[C@@H](C2)N(CC2CCC2)CC[C@]314
Ans. 9730

---

# Test Method Notes: Pharmacokinetic study of long acting preparation in Beagle dogs
# Type: in vivo, Beagle dog
# Assay Context: dog, plasma, im, 30 mg/kg, Mean of 5 dogs; 30 mg/kg i.m.; read-out: F
Reported Property: bioavailability
Please provide the amount together with its unit, number first.

Qu. Please report bioavailability for the following molecule: O=C(CCCCCCCCC(=O)Oc1ccc2c3c1O[C@H]1[C@@H](O)CC[C@@]4(O)[C@@H](C2)N(CC2CCC2)CC[C@]314)Oc1ccc2c3c1O[C@H]1[C@@H](O)CC[C@@]4(O)[C@@H](C2)N(CC2CCC2)CC[C@]314
Ans. 63.1%

---

# Test Method Notes: Pharmacokinetic study of long acting preparation in Beagle dogs
# Assay type: in vivo, Beagle dog
# Assay Context: dog, plasma, im, 24.3 mg/kg, Table 7, Dog 2, Dose 24.3 mg/kg; read-out: k10 (converted)
# Experimental: Six Beagle dogs were used. […] Relationship between time and concentration was analyzed by PCNONLIN computer program. Two compartment model and pharmacokinetic parameters were calculated to depicted absorption, distribution, metabolism, and excretion of drugs in dogs.
Reported Property: k el

Qu. Please report k el for the following compound: O=C(CCCCCCCCC(=O)Oc1ccc2c3c1O[C@H]1[C@@H](O)CC[C@@]4(O)[C@@H](C2)N(CC2CCC2)CC[C@]314)Oc1ccc2c3c1O[C@H]1[C@@H](O)CC[C@@]4(O)[C@@H](C2)N(CC2CCC2)CC[C@]314 [sebacoyl dinalbuphine ester]
Ans. 0.000336 s⁻¹

---

# Test Method Notes: Pharmacokinetic study of long acting preparation in Beagle dogs
# Assay type: in vivo, Beagle dog
# Assay Context: dog, plasma, im, 30 mg/kg, Mean of 5 dogs; 30 mg/kg i.m.; read-out: t1/2,β (converted)
Reported Property: half-life (h)
Write the value in h as a bare number.

Qu. Please report half-life for the following compound: O=C(CCCCCCCCC(=O)Oc1ccc2c3c1O[C@H]1[C@@H](O)CC[C@@]4(O)[C@@H](C2)N(CC2CCC2)CC[C@]314)Oc1ccc2c3c1O[C@H]1[C@@H](O)CC[C@@]4(O)[C@@H](C2)N(CC2CCC2)CC[C@]314
Ans. 27.7

---

# Test Method Notes: Pharmacokinetic study of long acting preparation in Beagle dogs
# Assay type: in vivo, Beagle dog
# Assay Context: dog, plasma, im, 24.3 mg/kg, Table 7, Dog 2, Dose 24.3 mg/kg; read-out: MRT
Reported Property: MRT (h)
Write the value in h as a bare number.

Qu. Please report MRT for the following compound: O=C(CCCCCCCCC(=O)Oc1ccc2c3c1O[C@H]1[C@@H](O)CC[C@@]4(O)[C@@H](C2)N(CC2CCC2)CC[C@]314)Oc1ccc2c3c1O[C@H]1[C@@H](O)CC[C@@]4(O)[C@@H](C2)N(CC2CCC2)CC[C@]314
Ans. 78.8

---

# Test Method Notes: Pharmacokinetic study of long acting preparation in Beagle dogs
# Type: in vivo, Beagle dog
# Assay Context: dog, plasma, im, 24.3 mg/kg, Table 7, Dog 2, Dose 24.3 mg/kg
Reported Property: AUC (ng·h/mL)
Write the value in ng·h/mL as a bare number.

Qu. Please report AUC for the following molecule: O=C(CCCCCCCCC(=O)Oc1ccc2c3c1O[C@H]1[C@@H](O)CC[C@@]4(O)[C@@H](C2)N(CC2CCC2)CC[C@]314)Oc1ccc2c3c1O[C@H]1[C@@H](O)CC[C@@]4(O)[C@@H](C2)N(CC2CCC2)CC[C@]314 [sebacoyl dinalbuphine ester]
Ans. 11900

---

# Test Method Notes: Pharmacokinetic study of long acting preparation in Beagle dogs
# Assay type: in vivo, Beagle dog
# Assay Context: dog, plasma, im, 81 mg/kg, Table 7, Dog 2, Dose 81.0 mg/kg; read-out: t1/2,β (converted)
Reported Property: half-life (h)
Write the value in h as a bare number.

Qu. Please report half-life for the following compound: O=C(CCCCCCCCC(=O)Oc1ccc2c3c1O[C@H]1[C@@H](O)CC[C@@]4(O)[C@@H](C2)N(CC2CCC2)CC[C@]314)Oc1ccc2c3c1O[C@H]1[C@@H](O)CC[C@@]4(O)[C@@H](C2)N(CC2CCC2)CC[C@]314
Ans. 41.9

---

# Test Method Notes: Pharmacokinetic study of long acting preparation in Beagle dogs
# Assay type: in vivo, Beagle dog
# Assay Context: dog, plasma, im, 81 mg/kg, Table 7, Dog 2, Dose 81.0 mg/kg; read-out: t1/2,α (converted)
Reported Property: half-life (min)
Write the value in min as a bare number.

Qu. Please report half-life for the following molecule: O=C(CCCCCCCCC(=O)Oc1ccc2c3c1O[C@H]1[C@@H](O)CC[C@@]4(O)[C@@H](C2)N(CC2CCC2)CC[C@]314)Oc1ccc2c3c1O[C@H]1[C@@H](O)CC[C@@]4(O)[C@@H](C2)N(CC2CCC2)CC[C@]314 [sebacoyl dinalbuphine ester]
Ans. 4.2

---

# Test Method Notes: Pharmacokinetic study of long acting preparation in Beagle dogs
# Assay type: in vivo, Beagle dog
# Assay Context: dog, plasma, im, 81 mg/kg, Table 7, Dog 2, Dose 81.0 mg/kg
Reported Property: AUC (ng·h/mL)
Write the value in ng·h/mL as a bare number.

Qu. Please report AUC for the following molecule: O=C(CCCCCCCCC(=O)Oc1ccc2c3c1O[C@H]1[C@@H](O)CC[C@@]4(O)[C@@H](C2)N(CC2CCC2)CC[C@]314)Oc1ccc2c3c1O[C@H]1[C@@H](O)CC[C@@]4(O)[C@@H](C2)N(CC2CCC2)CC[C@]314 [sebacoyl dinalbuphine ester]
Ans. 36200
